Recorded values, source ChEMBL document CHEMBL5230131.

target: Urea transporter 1 (Mus musculus); assay: Inhibition of UT-B in mouse erythrocyte incubated for 15 mins by erythrocyte osmotic lysis assay; type: cell-based
Sequence (Q8VHL0 whole entry): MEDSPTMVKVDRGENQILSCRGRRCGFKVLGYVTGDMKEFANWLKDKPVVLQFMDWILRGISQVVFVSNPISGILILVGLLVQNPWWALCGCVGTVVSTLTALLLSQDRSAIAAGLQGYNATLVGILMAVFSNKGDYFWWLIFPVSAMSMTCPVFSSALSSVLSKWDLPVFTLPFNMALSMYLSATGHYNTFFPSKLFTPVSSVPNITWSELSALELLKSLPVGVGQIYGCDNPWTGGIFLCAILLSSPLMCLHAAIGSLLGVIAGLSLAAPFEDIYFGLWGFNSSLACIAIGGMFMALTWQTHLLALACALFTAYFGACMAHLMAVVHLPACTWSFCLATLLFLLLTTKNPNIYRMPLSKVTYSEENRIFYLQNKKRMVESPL
Readout Type: IC50 (µM)
# unit: µM | format: bare number

The examples below pair each entry with its known result.
>  <Smiles Input>
CCOc1ccc(Nc2cc(C(=O)N3CCCCC3)nc3c(OC)cccc23)cc1

>  <IC50, µM>
16

$$$$
>  <Smiles Input>
CC(=O)Nc1ccc2c(c1)C(=O)c1cc(NC(C)=O)ccc1-2

>  <IC50, µM>
1

$$$$

As a next step, examine the compound that follows.
Ask: Look at this compound and give its reported IC50. CC(=O)Nc1ccc(-c2csc(-c3cc4ccccc4[nH]3)n2)cc1
Result: 50
